Ki reference
TARGET ENTITY: EP2 (Homo sapiens, UniProt P43116)
Sequence (P43116 whole entry): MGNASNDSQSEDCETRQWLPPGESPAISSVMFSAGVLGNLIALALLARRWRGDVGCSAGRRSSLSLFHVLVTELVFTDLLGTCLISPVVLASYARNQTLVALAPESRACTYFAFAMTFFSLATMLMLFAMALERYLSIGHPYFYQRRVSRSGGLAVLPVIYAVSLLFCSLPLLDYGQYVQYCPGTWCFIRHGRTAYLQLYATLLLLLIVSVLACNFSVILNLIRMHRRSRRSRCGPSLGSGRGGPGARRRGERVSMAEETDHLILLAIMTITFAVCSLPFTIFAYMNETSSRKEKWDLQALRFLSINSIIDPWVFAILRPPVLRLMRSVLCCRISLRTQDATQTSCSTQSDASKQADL
METHOD: Competition radioligand binding, [3H]PGE2, EP2
ASSAY CONDITIONS: [3H]PGE2 competition, HEK 293 cells expressing human EP2
Numeric only. Scale: nM

Previously resolved entries follow.
CCCCCC(O)c1ccc(C2=C(C#CCO)CC[C@@H]2CCCc2ccc(C(=O)O)s2)cc1 (stereo partly shown) [compound 3]    17
C#CC1=C(c2ccc(C(O)CCCCC)cc2)[C@@H](CCCc2ccc(C(=O)O)s2)CC1 (single isomer, unassigned) [compound 2]    7
C#CC1=C(c2ccc(C(O)CCCCC)cc2)[C@@H](CCCc2ccc(C(=O)O)s2)CC1 (single isomer, unassigned) [compound 1]    2

Proceed to the following item.
Supply Ki value. Item: CCCCCC(O)c1ccc(C2=C(C#Cc3ccccc3)CC[C@@H]2CCCc2ccc(C(=O)O)s2)cc1 (stereo partly shown) [compound 4]
2530
